# measured_on: Sphingosine 1-phosphate receptor 1 (Homo sapiens)
# run_description: S1P1 agonists and agonism potentiators, primary screen, cell-based, primary and confirmation screens, CRE-bla reporter (AID 449);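 note: forskolin at 4 µM as EC80 and the EC20 agonist is SEW2871; 100% = SEW2871 at its EC100 plus forskolin at EC80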
# settings: S1P1 CRE-bla cells, forskolin, beta-lactamase FRET, potentiator mode; measured here: confirmation screen, triplicate average; at 9.5 µM; stronger effect = higher value; 100% = saturating reference agonist, 0% = basal; S1P1 agonist co-added at EC20, 2 nM
Screen size: about 56,000 compounds; about 320 (0.57%) were called active. Shown is part of a subset that was picked to be rich in actives.
recorded_metric: activation (%)
Give bare numbers, in %.

// solved cases for activation follow
compound | recorded_metric | units_symbol | obs_value
CN(C)c1ccnc2sc3c(=O)n(Cc4ccccc4)cnc3c12 | activation | % | 84.4
Cc1ccc(-c2nc(COC(=O)c3c(C)noc3C)cs2)cc1 | activation | % | 98.2

For every listed record, write down its activation.
1. COC(=O)c1sc(NC(=O)c2ccc(OC)cc2OC)nc1C
2. COc1ccc(-n2c(C)cc(C(=O)CSc3nnc(-c4cccs4)o3)c2C)cc1
3. CCc1ccc(N(CC)c2ncnc3nc[nH]c23)cc1
4. O=C(Nc1ccccc1C(F)(F)F)c1cc(-c2ccc(O)cc2)on1

Response:
1: 94.2; 2: 111; 3: 57.4; 4: 96.3

// for each compound in input: emit activation
1. Cc1ccsc1C(=O)OCC(=O)c1cc(C)n(CC2CCCO2)c1C (configuration not stated)
2. CCOC(=O)C1C(=O)C=C(c2ccc(OC)cc2)CC1c1ccco1 (configuration not stated)
3. Cc1ccccc1OCC(=O)Nc1ccc(N2CCN(C(=O)C(C)C)CC2)c(Cl)c1
4. COc1ccccc1-n1nnnc1S(=O)(=O)Cc1ccc(Cl)cc1
5. CC[C@H]1CN2CCc3cc(OC)c(OC)cc3[C@@H]2C[C@@H]1C[C@H]1NCCc2cc(OC)c(OC)cc21
6. Fc1ccc2[nH]c3c(N4CCN(Cc5ccc6c(c5)OCO6)CC4)ncnc3c2c1

Response:
[84.7, 86.3, 68.2, 76, 101, 116]

---

# measured_on: Sphingosine 1-phosphate receptor 1 (Homo sapiens)
# run_description: S1P1 agonists and agonism potentiators, primary screen, cell-based, primary and confirmation screens, CRE-bla reporter (AID 449);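 note: forskolin at 4 µM as EC80 and the EC20 agonist is SEW2871; 100% = SEW2871 at its EC100 plus forskolin at EC80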
# settings: S1P1 CRE-bla cells, forskolin, beta-lactamase FRET, potentiator mode; at 9.5 µM; stronger effect = higher value; 100% = saturating reference agonist, 0% = basal; S1P1 agonist co-added at EC20, 2 nM
The whole screen tested about 56,000 compounds, of which about 320 (0.57%) were called active. The sample holds actives, similar compounds and a random draw of the others, so the mix is not that of the screen.
Provide the reported activation of each item.
One number for each entry, in %.

// known answers, use as guide
compound | activation (%)
COc1ccc(C2C(C#N)=C(N)Oc3cc(N)ccc32)cc1OC (stereo unspecified) | -18
COc1ccccc1N1CCN(Cc2nnnn2CCc2ccccc2)CC1 | -1.7

Give activation for each listed item.
1. COCCCn1c2nc3ccccc3nc2c2c(=O)n(Cc3ccc(Cl)cc3)c(C)nc21
2. COCCn1nnnc1C(c1ccccc1Cl)N1CCN(c2ccccc2OC)CC1 (stereo unspecified)
3. COc1cc(=O)[nH]c(=O)n1C(=O)Cc1ccccc1
4. Cc1ccc(C2CC(c3cccc(Br)c3)n3nc(N)nc3N2)cc1 (stereo unspecified)
5. c1csc(-c2cn3c(n2)SCC3)c1
6. COc1ccccc1-n1nnnc1S(=O)(=O)Cc1ccc(Cl)cc1
7. Cc1ccc(Cn2c(NC(=O)c3ccco3)nc3ccccc32)cc1
8. O=C(Cc1cccs1)N1CCCC(c2nc(-c3ccc(S(=O)(=O)N4CCCC4)cc3)no2)C1 (stereo unspecified)

Response:
6
-15.5
-7.8
-10.7
-25.6
89.3
-7.4
18.8

Request: Please report the recorded activation for O=c1oc2c(CN3CCCCC3)c(O)ccc2c2c1CCCCC2 .
Response: -2.6

---

# measured_on: Sphingosine 1-phosphate receptor 1 (Homo sapiens)
# run_description: S1P1 agonists and agonism potentiators, primary screen, cell-based, primary and confirmation screens, CRE-bla reporter (AID 449);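 note: forskolin at 4 µM as EC80 and the EC20 agonist is SEW2871; 100% = SEW2871 at its EC100 plus forskolin at EC80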
# settings: S1P1 CRE-bla cells, forskolin, beta-lactamase FRET, potentiator mode; at 9.5 µM; stronger effect = higher value; 100% = saturating reference agonist, 0% = basal; S1P1 agonist co-added at EC20, 2 nM
Among all 56,000 compounds or so, about 320 (0.57%) were called active. The full list was thinned out, with actives kept by preference.
recorded_metric: activation (%)
One number for each entry, in %.

Check out these entries, answers already filled in.
compound | units_symbol | activation
O=S(=O)(NCc1ccccn1)c1ccc(F)cc1 | % | -21.3
Cn1c(=O)[nH]c(=O)c2c1nc(CN1CCN(c3ccccc3F)CC1)n2CCc1ccccc1 | % | -6.4

Field: activation. Fill in for each record below.
1. CC1(C)CC(=O)C(C=NCCC2=CCCCC2)=C(O)C1
2. O=C(NC1CCN(Cc2ccccc2)CC1)c1ccccc1F
3. Cc1cccc(CC(=O)Nc2c3c(nn2-c2cccc(Cl)c2)CS(=O)C3)c1 (stereo unspecified)
4. O=C(NCc1ccc(Cl)c(Cl)c1)c1cccnc1

Response:
1. -14.2
2. -25.4
3. 26.1
4. 10.2

---

# measured_on: Sphingosine 1-phosphate receptor 1 (Homo sapiens) (UniProt P21453)
# Sequence (P21453 whole entry, looked up): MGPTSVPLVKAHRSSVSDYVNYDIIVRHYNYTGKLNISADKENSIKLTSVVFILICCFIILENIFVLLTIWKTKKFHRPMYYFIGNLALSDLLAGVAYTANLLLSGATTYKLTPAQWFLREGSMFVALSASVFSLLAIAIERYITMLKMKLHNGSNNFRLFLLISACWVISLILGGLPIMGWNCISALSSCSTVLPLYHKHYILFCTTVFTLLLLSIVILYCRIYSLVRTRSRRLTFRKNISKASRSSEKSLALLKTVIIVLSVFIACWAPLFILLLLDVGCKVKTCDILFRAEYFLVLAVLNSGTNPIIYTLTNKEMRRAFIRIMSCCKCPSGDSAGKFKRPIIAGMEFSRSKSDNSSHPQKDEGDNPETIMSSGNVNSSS
# run_description: S1P1 agonists and agonism potentiators, primary screen, cell-based, primary and confirmation screens, CRE-bla reporter (AID 449);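 note: forskolin at 4 µM as EC80 and the EC20 agonist is SEW2871; 100% = SEW2871 at its EC100 plus forskolin at EC80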
# settings: S1P1 CRE-bla cells, forskolin, beta-lactamase FRET, potentiator mode; at 9.5 µM; stronger effect = higher value; 100% = saturating reference agonist, 0% = basal; S1P1 agonist co-added at EC20, 2 nM
In all, about 56,000 compounds went through this assay and about 320 (0.57%) were called active. Many of the other results were omitted from the sample, so actives are more common in it than they were.
Could you please report measured activation for the items listed next?
Give bare numbers, in %.

compound | activation, %
CCN(CC)P(=O)(C(NC(=O)OC)C(F)(F)C(F)(F)C(F)(F)C(F)F)N(CC)CC (stereo not given) | 2.6

# map each compound to its activation
1. CC(C)(C)NC(=O)C(c1ccco1)N(Cc1ccc2c(c1)OCO2)C(=O)Cn1nnc2ccccc21 (stereo not given)
2. CC(NC(=O)c1ccc(Cl)cc1)C(=O)N1CCCCC1 (stereo not given)
3. CC(C)(C)Nc1c(N)c(=O)oc2ccccc12
4. CC(C)Oc1ccc(C(=O)Nc2cc(=O)n(C)c(=O)n2C)cc1
5. C=CCSc1nnc(Cn2c(=O)sc3ccccc32)n1C
6. COc1cc(OC)cc(C(=O)Nc2ncc3c(n2)CC(C)(C)CC3=O)c1

Response:
1: 11.2; 2: -2; 3: 9.1; 4: -4.5; 5: -13.4; 6: -4.2

Lab note: each compound below needs its activation filled in.
1. CCCCCCn1c(SCC(=O)c2ccccc2)nc2c1c(=O)[nH]c(=O)n2C
2. c1ccc(-n2ncc3c2ncn2c(CSc4nc5ccccc5s4)nnc32)cc1
3. Cc1cc(NC(=O)CN2CCCCC2C)nc2c1c(=O)oc1ccccc12 (stereo not given)
4. O=C(OCCO)c1cc(Cl)c(C(=O)OCCO)cc1Cl
5. CCCCn1c(CCCNC(=O)CC)nc2ccccc21
6. CCOc1cc(/C=N/n2cnnc2)c(Br)cc1O

Response:
-26.5
-7.8
-16.9
-15.8
-7
-9.1

Hi there! I need activation for each item below, if you can.
1. CCOC(=O)CSC1=C(C#N)C(c2ccco2)C(C(=O)OCc2ccccc2)=C(C)N1 (stereo not given)
2. O=C(CSCc1cccs1)N1CCCC1
3. CCOC(=O)C1C(=O)NC(N2CCN(c3ccccc3)CC2)=NC1c1ccco1 (stereo not given)
4. Cc1ccc(C(c2sc3nc(C)nn3c2O)N2CCN(c3ccccc3)CC2)cc1 (stereo not given)
5. Cc1nc2c(c(=O)n1Cc1ccco1)c1nc3ccccc3nc1n2Cc1ccccc1
6. FC(F)(F)c1cc(-c2ccco2)nc(N2CCOCC2)n1

Response:
1. 11.9
2. -22.9
3. -4.8
4. -6.2
5. 2.5
6. -22.2

Okay, here is my list. What is activation for each of these?
1. COc1ccc(C2/C(=C(/O)c3ccc(OC(C)C)cc3)C(=O)C(=O)N2CCCN2CCOCC2)cc1 (stereo not given)
2. CC(=O)Nc1ccc(S(=O)(=O)N2CCN(C3CCCCCCC3)CC2)cc1
3. Cc1cc(/C=N/n2cnnc2)c(C)n1-c1cccc(C(=O)O)c1
4. C=CCOc1nc2c(c(=O)n(C)c(=O)n2C)n1Cc1ccc(Cl)cc1Cl
5. CCn1c(SCCC(C)C)nnc1-c1c[nH]c2ccccc12
6. CCOCC(=O)NCc1ccc2c(c1)cc(C)n2C
7. CC(=O)N1CCN(c2cccc(C)c2C)CC1

Response:
1: 10.9; 2: -11.9; 3: -16.1; 4: 2.7; 5: 33; 6: -18; 7: -9.6
